TARGET SYSTEM: recombinant human GM-CSF protein (human, UniProt P04141 18-144)
Sequence (P04141 18-144): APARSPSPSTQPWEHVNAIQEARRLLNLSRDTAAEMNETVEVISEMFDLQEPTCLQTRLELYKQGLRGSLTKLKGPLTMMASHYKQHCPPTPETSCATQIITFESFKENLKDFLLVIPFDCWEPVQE
PROCEDURE SUMMARY: ELISA
Record form. Attribute: pEC50. Fill in for each entry.
Schema: pEC50 number; meaning minus log10 of the concentration expressed in molar units.

# pEC50 of Hu23F4-22 (antibody, V domains shown) VH: EVQLVQSGAEVKKPGASVKVSCKASGYTFTSHYLHWVRQAPGQGLEWMGWIFPGDDKTKYNEKFKGRVTMTRDTSISTAYMELSRLRSDDTAVYYCARGTKYLNWNFDVWGQGTTVTVSS VL: DIQLTQSPSFLSASVGDRVTITCKANQNVGTTLAWYQQKPGKAPKALIYSASYRYSGVPDRFSGSGSGTDFTLTISSLQPEDFATYYCHQYTTYPLTFGGGTKVEIK = 10.23

# pEC50 of Hu23F4-7 (antibody, V domains shown) VH: EVQLVQSGAEVKKPGATVKISCKVSGYTFTSHYLHWVQQAPGKGLEWMGWIFPGDDKTKYNEKFKGRVTITSDTSTDTAYMELSSLRSEDTAVYYCARGTKYLNWNFDVWGQGTTVTVSS VL: DIQLTQSPSFLSASVGDRVTITCKANQNVGTTLAWYQQKPGKAPKALIYSASYRYSGVPDRFSGSGSGTDFTLTISSLQPEDFATYYCHQYTTYPLTFGGGTKVEIK = 9.79

# pEC50 of Hu23F4-15 (antibody, V domains shown) VH: EVQLVQSGAEVKKPGATVKISCKVSGYTFTSHYLHWVQQAPGKGLEWIGWIFPGDDKTKYNEKFKGRATLTSDTSTDTAYMELSSLRSEDTAVYYCARGTKYLNWNFDVWGQGTTVTVSS VL: DIQLTQSPSFLSASVGDRVTITCKANQNVGTTLAWYQQKPGKAPKALIYSASYRYSGVPDRFSGSGSGTDFTLTISSLQPEDFATYYCHQYTTYPLTFGGGTKVEIK = 9.77

# pEC50 of Hu23F4-9 (antibody, V domains shown) VH: EVQLVQSGAEVKKPGATVKISCKVSGYTFTSHYLHWVQQAPGKGLEWMGWIFPGDDKTKYNEKFKGRATLTSDTSTDTAYMELSSLRSEDTAVYYCARGTKYLNWNFDVWGQGTTVTVSS VL: DIQLTQSPSFLSASVGDRVTITCKANQNVGTTLAWYQQKPGKAPKLLIYSASYRYSGVPSRFSGSGSGTEFTLTISSLQPEDFATYYCHQYTTYPLTFGGGTKVEIK = 10.29

# pEC50 of Hu23F4-19 (antibody, V domains shown) VH: EVQLVQSGAEVKKPGATVKISCKVSDYTLTSHYLHWVQQAPGKGLEWIGWIFPGDDKTKYNEKFKGRATLTSDTSTDTAYMELSSLRSEDTAVYYCARGTKYLNWNFDVWGQGTTVTVSS VL: DIQLTQSPSFLSASVGDRVTITCKANQNVGTTLAWYQQKPGKAPKALIYSASYRYSGVPDRFSGSGSGTDFTLTISSLQPEDFATYYCHQYTTYPLTFGGGTKVEIK = 10.10

# pEC50 of Hu23F4-17 (antibody, V domains shown) VH: EVQLVQSGAEVKKPGATVKISCKVSDYTLTSHYLHWVQQAPGKGLEWIGWIFPGDDKTKYNEKFKGRATLTSDTSTDTAYMELSSLRSEDTAVYYCARGTKYLNWNFDVWGQGTTVTVSS VL: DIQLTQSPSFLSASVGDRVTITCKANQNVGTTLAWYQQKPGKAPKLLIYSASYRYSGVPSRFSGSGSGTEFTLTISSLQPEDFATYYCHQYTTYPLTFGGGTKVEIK = 9.99

# pEC50 of Hu23F4-1 (antibody, V domains shown) VH: EVQLVQSGAEVKKPGATVKISCKVSGYTFTSHYLHWVQQAPGKGLEWMGWIFPGDDKTKYNEKFKGRVTITADTSTDTAYMELSSLRSEDTAVYYCARGTKYLNWNFDVWGQGTTVTVSS VL: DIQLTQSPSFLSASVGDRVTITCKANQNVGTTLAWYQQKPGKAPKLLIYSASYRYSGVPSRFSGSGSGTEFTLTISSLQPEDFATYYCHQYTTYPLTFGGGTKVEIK = 9.96
